test system: Pseudomonas aeruginosa PAO1; test: Inhibition of multidrug resistance efflux pump in Pseudomonas aeruginosa PAO1 assessed as dose required to restore 2 ug/ml chloramphenicol-induced inhibition of visible growth after 18 hrs by standard broth dilution method
Please go through the items and note down their Activity.
Answers are plain numbers, in µM.

Record excerpt, results attached:
COc1c(Br)cc(/C=C/C(=O)NCCCNCCCNCCCNC(=O)/C=C/c2cc(Br)c(OC)c(Br)c2)cc1Br    12.5
COc1c(Br)cc(/C=C/C(=O)NCCNCCNCCNCCN)cc1Br    100
COc1c(Br)cc(/C=C/C(=O)NCCCNCCCCN)cc1Br.Cl.Cl    200

Please supply Activity for each of the following items, keeping them in order.
1. COc1c(Br)cc(/C=C/C(=O)NCCCN(CCCN)CCCN)cc1Br
2. COc1c(Br)cc(/C=C/C(=O)NCCCCNCCCN)cc1Br.Cl.Cl

Solution:
[100, 100]
